# Test system: Saccharomyces cerevisiae BY4741 SeMeCo community
# Assay notes: z-score of subpopulation abundance vs DMSO median, subpopulation auxotrophic for HLU; higher = larger share of this subpopulation than in DMSO controls
# Experimental setup: 10 µM; 24 h; SM minimal medium; subpopulation (auxotrophy): HLU
Where a name gives a salt, the structure may show the parent alone.
# label = fulfilled if z-score of subpopulation abundance >= 0.03 else not fulfilled

{"columns": ["Compound", "Class assignment"],
 "data": [
  ["NC[C@H]1O[C@H](O[C@H]2[C@H](O)[C@@H](O[C@H]3O[C@H](CO)[C@@H](O)[C@H](N)[C@H]3O)[C@H](N)C[C@@H]2N)[C@H](N)C[C@@H]1O [Tobramycin]", "not fulfilled"],
  ["CC1=C(C(=O)O)N2C(=O)[C@@H](NC(=O)[C@H](N)C3=CCC=CC3)[C@H]2SC1 [Cephradine monohydrate]", "not fulfilled"],
  ["OCCN1CCN(CCCN2c3ccccc3Sc3ccc(C(F)(F)F)cc32)CC1 [Fluphenazine dihydrochloride]", "fulfilled"],
  ["Cc1ccc(Sc2ccccc2N2CCNCC2)c(C)c1 [Vortioxetine]", "fulfilled"],
  ["C[C@]12CCC(=O)C=C1[C@@H]1C[C@@H]1[C@H]1[C@@H]3[C@@H]4C[C@@H]4[C@@]4(CCC(=O)O4)[C@@]3(C)CC[C@@H]12 [Drospirenone]", "fulfilled"]
]}

Identify whether the reported z-score of subpopulation abundance of the following compound is 0.03 or greater: CC#C[C@]1(O)CC[C@H]2[C@@H]3CCC4=CC(=O)CCC4=C3[C@@H](c3ccc(N(C)C)cc3)C[C@@]21C [Mifepristone]
fulfilled

Identify whether the reported z-score of subpopulation abundance of the following compound is 0.03 or greater: C[C@@H]1O[C@@H]1P(=O)(O)O [Fosfomycin Disodium]
fulfilled

Identify whether the reported z-score of subpopulation abundance of the following compound is 0.03 or greater: CN1CCN(C2=Nc3cc(Cl)ccc3Nc3ccccc32)CC1 [Clozapine]
not fulfilled

Identify whether the reported z-score of subpopulation abundance of the following compound is 0.03 or greater: NC(=N\CCCCCC/N=C(N)/N=C(\N)Nc1ccc(Cl)cc1)/N=C(\N)Nc1ccc(Cl)cc1 [Chlorhexidine diacetate]
fulfilled

Identify whether the reported z-score of subpopulation abundance of the following compound is 0.03 or greater: O=C(O)c1ccccc1O [Salicylic acid]
not fulfilled

Identify whether the reported z-score of subpopulation abundance of the following compound is 0.03 or greater: Oc1ccc(C2CNCCc3c2cc(O)c(O)c3Cl)cc1 (configuration not stated) [Fenoldopam mesylate]
not fulfilled

Identify whether the reported z-score of subpopulation abundance of the following compound is 0.03 or greater: CCCCNc1ccc(C(=O)OCCN(C)C)cc1 [Tetracaine HCl]
not fulfilled

====

# Tested on: Saccharomyces cerevisiae BY4741 SeMeCo community
# Assay notes: z-score of subpopulation abundance vs DMSO median, subpopulation auxotrophic for HUM; higher = larger share of this subpopulation than in DMSO controls
# Experimental setup: 10 µM; 24 h; SM minimal medium; subpopulation (auxotrophy): HUM
Counter-ions that a name gives are not always drawn.
Endpoint: z-score of subpopulation abundance
Answers are plain numbers.

Solved entries (count: 3):
{"columns": ["Molecule", "z-score of subpopulation abundance"],
 "data": [
  ["CC1(C)S[C@@H]2[C@H](NC(=O)[C@H](N)c3ccc(O)cc3)C(=O)N2[C@H]1C(=O)O [Amoxicillin Sodium]", -0.13],
  ["CCN(Cc1ccncc1)C(=O)C(CO)c1ccccc1 (stereo not drawn) [Tropicamide]", 0.16],
  ["Clc1ccc(CCC(Cn2ccnc2)Sc2c(Cl)cccc2Cl)cc1 (stereo not drawn) [Butoconazole]", 5.14]
]}

Give one value of z-score of subpopulation abundance per listed molecule.
1. C/C=C1\[C@H]2C=C(C)C[C@]1(N)c1ccc(=O)[nH]c1C2 [(-)-Huperzine A (HupA)]
2. Cc1[nH]c(=O)c(C#N)cc1-c1ccncc1 [Milrinone]
3. CO/N=C(\C(=O)N[C@@H]1C(=O)N2C(C(=O)O)=C(CSC(=O)c3ccco3)CS[C@H]12)c1csc(N)n1 [Ceftiofur HCl]
4. Cc1cc(NS(=O)(=O)c2ccc(N)cc2)no1 [Sulfamethoxazole sodium]
5. CC1(C)S[C@@H]2[C@H](NC(=O)C(c3ccccc3)S(=O)(=O)O)C(=O)N2[C@H]1C(=O)O (stereo partly drawn) [Sulbenicillin Sodium]
6. COC(=O)C1=C(C)NC(C)=C(C(=O)OCCN(C)Cc2ccccc2)C1c1cccc([N+](=O)[O-])c1 (stereo not drawn) [Nicardipine HCl]
7. O=C1CN2Cc3c(ccc(Cl)c3Cl)N=C2N1 [Anagrelide HCl]

[0.11, -1.04, 2.38, 1.03, 0.43, 0.62, 0.14]

Give one value of z-score of subpopulation abundance per listed molecule.
1. CO[C@@]1(NC(=O)C(C(=O)O)c2ccc(O)cc2)C(=O)N2C(C(=O)O)=C(CSc3nnnn3C)CO[C@@H]21 (stereo partly drawn) [Latamoxef sodium]
2. Oc1c(Cl)cc(Cl)c2cccnc12 [Chloroxine]
3. CN(C)CCc1c[nH]c2ccc(Cn3cncn3)cc12 [Rizatriptan Benzoate]
4. C[C@@H](O)[C@H]1C(=O)N2C(C(=O)O)=C([C@H]3CCCO3)S[C@H]12 [Faropenem Sodium]

1. -0.43
2. 19.8
3. -0.59
4. 0.59

Give one value of z-score of subpopulation abundance per listed molecule.
1. CC(C)N1CCN(c2ccc(OCC3COC(Cn4cncn4)(c4ccc(Cl)cc4Cl)O3)cc2)CC1 (stereo not drawn) [Terconazole]
2. CCCc1nn(C)c2c(=O)[nH]c(-c3cc(S(=O)(=O)N4CCN(C)CC4)ccc3OCC)nc12 [Sildenafil Citrate]
3. CCOC(=O)C1=C[C@@H](OC(CC)CC)[C@H](NC(C)=O)[C@@H](N)C1 [Oseltamivir Phosphate]
4. COc1ccc2[nH]c([S+]([O-])Cc3ncc(C)c(OC)c3C)nc2c1 (stereo not drawn) [Omeprazole]
5. CCOC(=O)CCC(=O)O[C@H]1[C@H](O[C@@H]2[C@@H](C)[C@H](O[C@H]3C[C@@](C)(OC)[C@@H](O)[C@H](C)O3)[C@@H](C)C(=O)O[C@H](CC)[C@@](C)(O)[C@H](O)[C@@H](C)C(=O)[C@H](C)C[C@@]2(C)O)O[C@H](C)C[C@@H]1N(C)C [Erythromycin Ethylsuccinate]
6. CCOC(=O)C1=C(C)NC(C)=C(C(=O)OC)C1c1cccc([N+](=O)[O-])c1 (stereo not drawn) [Nitrendipine]

1: -0.65; 2: -0.06; 3: -1.09; 4: -0.34; 5: 1.68; 6: 0.52

Give one value of z-score of subpopulation abundance per listed molecule.
1. CCOc1cc(N)c([N+](=O)[O-])cc1C(=O)NC1CCN(CC2CC=CCC2)CC1 (stereo not drawn) [Cinitapride Hydrogen Tartrate]
2. CN(C)CCn1nnnc1SCC1=C(C(=O)O)N2C(=O)[C@@H](NC(=O)Cc3csc(N)n3)[C@H]2SC1 [Cefotiam hydrochloride]
3. COC(=O)C1=C(C)NC(C)=C(C(=O)OC(C)(C)CN(C)CCC(c2ccccc2)c2ccccc2)C1c1cccc([N+](=O)[O-])c1 (stereo not drawn) [Lercanidipine]
4. NC(=NCCCCCCN=C(N)N=C(N)Nc1ccc(Cl)cc1)N=C(N)Nc1ccc(Cl)cc1 [Chlorhexidine?2HCl]
5. O=C1NC(=O)C(c2ccccc2)(c2ccccc2)N1 [Phenytoin]
6. C[C@H]1O[C@@H](O[C@H]2[C@@H](O)C[C@H](O[C@H]3[C@@H](O)C[C@H](O[C@H]4CC[C@@]5(C)[C@H](CC[C@@H]6[C@@H]5C[C@@H](O)[C@]5(C)[C@@H](C7=CC(=O)OC7)CC[C@]65O)C4)O[C@@H]3C)O[C@@H]2C)C[C@H](O)[C@@H]1O [Digoxin]
7. CC(C)c1c(C(=O)Nc2ccccc2)c(-c2ccccc2)c(-c2ccc(F)cc2)n1CC[C@@H](O)C[C@@H](O)CC(=O)O [Atorvastatin]

1.26
0.5
0.23
-0.7
0.18
-0.77
2.1

Record O=c1c(-c2ccc(O)cc2)coc2c([C@@H]3O[C@H](CO)[C@@H](O)[C@H](O)[C@H]3O)c(O)ccc12 [Puerarin] . Reported z-score of subpopulation abundance: -0.25

====

# Test system: Saccharomyces cerevisiae BY4741 SeMeCo community
# Assay notes: z-score of subpopulation abundance vs DMSO median, subpopulation auxotrophic for HL; higher = larger share of this subpopulation than in DMSO controls
# Experimental setup: 10 µM; 24 h; SM minimal medium; subpopulation (auxotrophy): HL
Where a name gives a salt, the structure may show the parent alone.
Endpoint: z-score of subpopulation abundance
Numbers only.

Solved entries (count: 3):
{"columns": ["Molecule", "z-score of subpopulation abundance"],
 "data": [
  ["C[C@]12CC[C@@H]3c4ccc(OS(=O)(=O)O)cc4CC[C@H]3[C@@H]1CCC2=O [Estropipate]", -0.81],
  ["CCCCOc1cc(C(=O)NCCN(CC)CC)c2ccccc2n1 [Dibucaine HCl]", -1.25],
  ["COc1cc2c(cc1OC)[C@@H]1Cc3ccc(OC)c(OC)c3CN1CC2", 0.52]
]}

Next item in the queue.
Record `CN(CCN1CCC(OC(=O)Nc2ccccc2-c2ccccc2)CC1)C(=O)c1ccc(CN2CCC(C(N)=O)CC2)cc1` . Reported z-score of subpopulation abundance: -0.32
